Data provenance: patent US9513294B2

Protocol Notes: Absorbance and fluorescence emission spectra (SpectraMax M2)
Format: physicochemical
Condition Parameters: MK library, Table 5
Assay Endpoint: λmax Emission (nm)

>>> print(df.to_string())
                                   molecule  assay_endpoint  observed_measurement
0  Cc1ccccc1CNC1=[N+]2C(=C(c3ccc(N)cc3)c3ccc(-n4cc(CO)nn4)n3[B-]2(F)F)C=C1 [MK101-70]   λmax Emission                   565
1  CCCC(C)c1cn(-c2ccc3n2[B-](F)(F)[N+]2=C(NCc4cc(F)cc(F)c4)C=CC2=C3c2ccc(N)cc2)nn1 (stereo not shown) [MK412-3]   λmax Emission                   562
2  Nc1ccc(C2=C3C=CC(NCc4cc(F)cc(F)c4)=[N+]3[B-](F)(F)n3c2ccc3-n2cc(CCc3ccccc3)nn2)cc1 [MK412-19]   λmax Emission                   564
3  CCCC(C)c1cn(-c2ccc3n2[B-](F)(F)[N+]2=C(N(C)Cc4ccccc4)C=CC2=C3c2ccc(N)cc2)nn1 (stereo not shown) [MK195-3]   λmax Emission                   564
4  CCCCCC(O)c1cn(-c2ccc3n2[B-](F)(F)[N+]2=C(NCc4cc(F)cc(F)c4)C=CC2=C3c2ccc(N)cc2)nn1 (stereo not shown) [MK412-69]   λmax Emission                   563
5  CCCc1cn(-c2ccc3n2[B-](F)(F)[N+]2=C(NCc4ccccc4OCC)C=CC2=C3c2ccc(N)cc2)nn1 [MK103-48]   λmax Emission                   563
6  Nc1ccc(C2=C3C=CC(N4CCCC4)=[N+]3[B-](F)(F)n3c2ccc3-n2cc(CO)nn2)cc1 [MK215-70]   λmax Emission                   595

---

Protocol Notes: Quantum yield measurements versus Acridine Yellow in EtOH
Type: physicochemical
Condition Parameters: MKAC compound library; quantum yield
Assay Endpoint: φ (%)

>>> df
                                   molecule  assay_endpoint  observed_measurement
0  CCCCCC(O)c1cn(-c2ccc3n2[B-](F)(F)[N+]2=C(NCc4ccccc4OCC)C=CC2=C3c2ccc(NC(C)=O)cc2)nn1 (stereo not drawn)           φ (%)                 20.91

P. CCCCCC(O)c1cn(-c2ccc3n2[B-](F)(F)[N+]2=C(NCc4cc(OC)ccc4OC)C=CC2=C3c2ccc(NC(C)=O)cc2)nn1 (racemic)
Q. CC(=O)Nc1ccc(C2=C3C=CC(N(C)Cc4ccccc4)=[N+]3[B-](F)(F)n3c2ccc3-n2cc(CN(C)Cc3ccccc3)nn2)cc1
IN: Form: Entry with minimum φ (%) (choose one): P / Q Indicate your choice by writing its label.
OUT: Q
(Q: 1.85%, P: 16.50%)

a. COc1ccc(OC)c(CNC2=[N+]3C(=C(c4ccc(NC(C)=O)cc4)c4ccc(-n5cc(C6CC6)nn5)n4[B-]3(F)F)C=C2)c1
b. CCCc1cn(-c2ccc3n2[B-](F)(F)[N+]2=C(N(C)Cc4ccccc4)C=CC2=C3c2ccc(NC(C)=O)cc2)nn1
IN: Form: Entry with minimum φ (%) (choose one): a / b Indicate your choice by writing its label.
OUT: b

---

Protocol Notes: Absorbance and fluorescence emission spectra (SpectraMax M2)
Format: physicochemical
Condition Parameters: MK library, Table 5
Assay Endpoint: λmax Absorp. (nm)

>>> df
                                    molecule  observed_measurement
 0  CCCC(C)c1cn(-c2ccc3n2[B-](F)(F)[N+]2=C(NCc4ccccc4C)C=CC2=C3c2ccc(N)cc2)nn1 (centres unmarked)                   475
 1  CC1CN(C2=[N+]3C(=C(c4ccc(N)cc4)c4ccc(-n5cc(CN(C)Cc6ccccc6)nn5)n4[B-]3(F)F)C=C2)CC(C)O1 (centres unmarked)                   477
 2  CC1CN(C2=[N+]3C(=C(c4ccc(N)cc4)c4ccc(-n5cc(C6CC6)nn5)n4[B-]3(F)F)C=C2)CC(C)O1 (centres unmarked)                   476
 3  CCCc1cn(-c2ccc3n2[B-](F)(F)[N+]2=C(NCc4cc(OC)ccc4OC)C=CC2=C3c2ccc(N)cc2)nn1                   473
 4  CCOc1ccccc1CNC1=[N+]2C(=C(c3ccc(N)cc3)c3ccc(-n4cc(CC5CCCCC5)nn4)n3[B-]2(F)F)C=C1                   473
 5  CCCCCC(O)c1cn(-c2ccc3n2[B-](F)(F)[N+]2=C(NCc4ccccc4C)C=CC2=C3c2ccc(N)cc2)nn1 (centres unmarked)                   475
 6  CCCCCC(O)c1cn(-c2ccc3n2[B-](F)(F)[N+]2=C(NCc4cc(F)cc(F)c4)C=CC2=C3c2ccc(N)cc2)nn1 (centres unmarked)                   476
 7  COc1ccc(OC)c(CNC2=[N+]3C(=C(c4ccc(N)cc4)c4ccc(-n5cc(CC(C)C)nn5)n4[B-]3(F)F)C=C2)c1                   475
 8  CCCc1cn(-c2ccc3n2[B-](F)(F)[N+]2=C(N4CC(C)OC(C)C4)C=CC2=C3c2ccc(N)cc2)nn1 (centres unmarked)                   476
 9  Nc1ccc(C2=C3C=CC(N4CCCC4)=[N+]3[B-](F)(F)n3c2ccc3-n2cc(CC3CCCCC3)nn2)cc1                   470
10  Nc1ccc(C2=C3C=CC(NCc4cc(F)cc(F)c4)=[N+]3[B-](F)(F)n3c2ccc3-n2cc(C3CCCC3)nn2)cc1                   476
11  COc1ccc(OC)c(CNC2=[N+]3C(=C(c4ccc(N)cc4)c4ccc(-n5cc(C6CCCC6)nn5)n4[B-]3(F)F)C=C2)c1                   475
12  CCCC(C)c1cn(-c2ccc3n2[B-](F)(F)[N+]2=C(N4CC(C)OC(C)C4)C=CC2=C3c2ccc(N)cc2)nn1 (centres unmarked)                   476
13  Nc1ccc(C2=C3C=CC(NCc4cc(F)cc(F)c4)=[N+]3[B-](F)(F)n3c2ccc3-n2cc(CCc3ccccc3)nn2)cc1                   475

---

Protocol Notes: Absorbance and fluorescence emission spectra (SpectraMax M2)
Format: physicochemical
Condition Parameters: MK library, Table 5
Assay Endpoint: λmax Absorp. (nm)

                                   compound  assay_endpoint  observed_measurement
0  Cc1ccccc1CNC1=[N+]2C(=C(c3ccc(N)cc3)c3ccc(-n4cc(CC(C)C)nn4)n3[B-]2(F)F)C=C1    λmax Absorp.                   474
1  Cc1ccccc1CNC1=[N+]2C(=C(c3ccc(N)cc3)c3ccc(-n4cc(CCc5ccccc5)nn4)n3[B-]2(F)F)C=C1    λmax Absorp.                   472
2  CN(Cc1ccccc1)Cc1cn(-c2ccc3n2[B-](F)(F)[N+]2=C(N(C)Cc4ccccc4)C=CC2=C3c2ccc(N)cc2)nn1    λmax Absorp.                   475
3  CC1CN(C2=[N+]3C(=C(c4ccc(N)cc4)c4ccc(-n5cc(CCc6ccccc6)nn5)n4[B-]3(F)F)C=C2)CC(C)O1 (stereo not shown)    λmax Absorp.                   477
4  CC(C)Cc1cn(-c2ccc3n2[B-](F)(F)[N+]2=C(N4CC(C)OC(C)C4)C=CC2=C3c2ccc(N)cc2)nn1 (stereo not shown)    λmax Absorp.                   478
5  CN(Cc1ccccc1)Cc1cn(-c2ccc3n2[B-](F)(F)[N+]2=C(N4CCCC4)C=CC2=C3c2ccc(N)cc2)nn1    λmax Absorp.                   471
6  CCOc1ccccc1CNC1=[N+]2C(=C(c3ccc(N)cc3)c3ccc(-n4cc(C5CC5)nn4)n3[B-]2(F)F)C=C1    λmax Absorp.                   473

---

Protocol Notes: Absorbance and fluorescence emission spectra (SpectraMax M2)
Assay type: physicochemical
Condition Parameters: MK library, Table 5
Assay Endpoint: λmax Absorp. (nm)

In [3]: df
Out[3]:
                                   compound  assay_endpoint  value_units  observed_measurement
0  Nc1ccc(C2=C3C=CC(N4CCCC4)=[N+]3[B-](F)(F)n3c2ccc3-n2cc(CO)nn2)cc1 [MK215-70]    λmax Absorp.           nm                   471
1  COc1ccc(OC)c(CNC2=[N+]3C(=C(c4ccc(N)cc4)c4ccc(-n5cc(C6CC6)nn5)n4[B-]3(F)F)C=C2)c1 [MK181-4]    λmax Absorp.           nm                   474
2  CC(C)Cc1cn(-c2ccc3n2[B-](F)(F)[N+]2=C(N4CCc5ccccc5C4)C=CC2=C3c2ccc(N)cc2)nn1 [MK66-43]    λmax Absorp.           nm                   480
3  Nc1ccc(C2=C3C=CC(NCc4cc(F)cc(F)c4)=[N+]3[B-](F)(F)n3c2ccc3-n2cc(CC3CCCCC3)nn2)cc1 [MK412-8]    λmax Absorp.           nm                   476
4  CN(Cc1ccccc1)C1=[N+]2C(=C(c3ccc(N)cc3)c3ccc(-n4cc(CCc5ccccc5)nn4)n3[B-]2(F)F)C=C1 [MK195-19]    λmax Absorp.           nm                   477
5  CCOc1ccccc1CNC1=[N+]2C(=C(c3ccc(N)cc3)c3ccc(-n4cc(CCc5ccccc5)nn4)n3[B-]2(F)F)C=C1 [MK103-19]    λmax Absorp.           nm                   472
6  CCOc1ccccc1CNC1=[N+]2C(=C(c3ccc(N)cc3)c3ccc(-n4cc(CN(C)Cc5ccccc5)nn4)n3[B-]2(F)F)C=C1 [MK103-18]    λmax Absorp.           nm                   473
